Target: DLG1_2, Q12959
Sequence (Q12959 314-412): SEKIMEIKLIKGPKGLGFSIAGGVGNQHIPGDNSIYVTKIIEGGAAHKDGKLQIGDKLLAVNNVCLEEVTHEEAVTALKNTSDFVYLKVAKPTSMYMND
Assay: holdup assay
Set-up: key: below the threshold = too weak to quantify, mostly under pKd 3.1 to 4
Conditions: plain residues with an end cap or a label only (N-terminal biotin on a linker: ado-ado)
Property: pKd

PDSYHRRDFW [U2AF2, P26368] : below the threshold
QLGSPTADLA [SIPA1, Q96FS4] : below the threshold
ELKAEDEVQI [DCHS2, Q6V1P9] : below the threshold

Data origin, for the record: paper PMC9482650
